These measurements were taken from patent US20090022659A1.

Target: T1, Tumor Necrosis Factor-alpha (TNF-α), R&D systems 210-TA / 210-TA-CF (human, UniProt P01375 77-233)
T1 construct: Bought protein; also called huTNF-α
T1 sequence (P01375 77-233 limits assumed): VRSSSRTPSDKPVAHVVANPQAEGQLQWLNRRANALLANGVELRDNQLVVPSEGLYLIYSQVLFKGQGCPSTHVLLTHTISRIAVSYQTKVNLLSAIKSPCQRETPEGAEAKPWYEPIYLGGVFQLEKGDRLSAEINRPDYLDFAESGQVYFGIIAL
Assay: biolayer interferometry (Octet QK); biotinylated TNF-α on streptavidin sensor, antibody 8 nM to 1 nM
Readout: Kd

So for anti-TNF-α antibody Ab13 (antibody, V domains shown) VH: QSVEESGGRLVTPGTPLTLTCTVSGIDLSSYAMGWVRQAPGKGLEYIGYILSSGITYYASWARGRFTISKTSSTTVDLKMTSLTTEDTATYFCARNGNYNSGTDI VL: ADIVMTQTPASVSEPVGGTVTIKCQASQNIYSTLAWYQQKPGQPPKLLIYLASTLASGVPSRFKGSGSGTQFTLTISDLECADAATYYCQTSHGSNSDSFGYA , the logged Kd turned out to be 0.01 to 0.05 nM
